The values you see were collected from the DeepSol protein solubility set.

- experiment.notes: soluble on expression in E. coli; label from the status in PepcDB or PDB records
observation.type: soluble on expression in E. coli

MGSDKIHHHHHHMSRTVVISQPTYLPWLGYFELIAKSDVFVFLDNVQCVKQSWHNRNRLKGNDDQLIWLTVPVKAHPLDTPLSKIQILNNPSVWRRKHLGTIQTCLGSAVYFHTIFPFIQEFINYEYEYLVDLNISLIKLFADLLGLSPNFVKASDLNPQGRRTEMLVNLCQQLDADYYYSPMGSKVYIEEEKHLFIEEDIKLNYQIWEHPCYSQRGKIFVSHLSILDTLMNIGLEATRSLIIPNKLKDI = not soluble
MAHHHHHHMDSMPPLSSPCLVEQEARQVPAGCFTRAVYALHSTDNEQTETAALTVRKLIKEEDQGMMRGAASSQIPLKRKGSKTNSAKSKYGKSGKLGRSSVVSWNLKSAPKITKAAGVTSANNNENREYVSPIVWCPVTPLMDNIYRSKWRQPMGRASSQAIDNEKNICIDETNVGENDLCMCKDVEAQFVLRGGERIYTLHYVTPLSMKRRETNEENSMCYGVLPVIRICVNPPVTP = not soluble
